tested on: Mus musculus; experiment: Phototoxicity in Swiss albino mouse assessed as erythema incidence at 140 mg/kg, po after 48 hrs of irradiation; assay type: organism-based; design: dose 140 mg/kg, route oral; conditions: in vivo
property_label: Activity

[[record]]
molecule = "O=C(O)c1c(=O)c2cc(F)c(N3CCC4(CC3)OCCO4)cc2n2c1sc1ccccc12"
target_of_assay = "Mus musculus"
reported_result = "Non-toxic"

[[record]]
molecule = "CCn1cc(C(=O)O)c(=O)c2cc(F)c(N3CCNC(C)C3)c(F)c21 (centres undefined)"
target_of_assay = "Mus musculus"
reported_result = "Toxic"

[[record]]
molecule = "CCN(CC)C(=O)C1CCCN(c2cc3c(cc2F)c(=O)c(C(=O)O)c2sc4ccccc4n23)C1 (centres undefined)"
target_of_assay = "Mus musculus"
reported_result = "Non-toxic"

[[record]]
molecule = "O=C(O)c1c(=O)c2cc(F)c(N3CCC(O)(c4ccc(Cl)cc4)CC3)cc2n2c1sc1ccccc12"
target_of_assay = "Mus musculus"
reported_result = "Non-toxic"


Origin of values: ChEMBL document CHEMBL1142419
